Consider the following IC50 values measured on human HDAC1 (Homo sapiens).
Sequence (Q13547 whole entry): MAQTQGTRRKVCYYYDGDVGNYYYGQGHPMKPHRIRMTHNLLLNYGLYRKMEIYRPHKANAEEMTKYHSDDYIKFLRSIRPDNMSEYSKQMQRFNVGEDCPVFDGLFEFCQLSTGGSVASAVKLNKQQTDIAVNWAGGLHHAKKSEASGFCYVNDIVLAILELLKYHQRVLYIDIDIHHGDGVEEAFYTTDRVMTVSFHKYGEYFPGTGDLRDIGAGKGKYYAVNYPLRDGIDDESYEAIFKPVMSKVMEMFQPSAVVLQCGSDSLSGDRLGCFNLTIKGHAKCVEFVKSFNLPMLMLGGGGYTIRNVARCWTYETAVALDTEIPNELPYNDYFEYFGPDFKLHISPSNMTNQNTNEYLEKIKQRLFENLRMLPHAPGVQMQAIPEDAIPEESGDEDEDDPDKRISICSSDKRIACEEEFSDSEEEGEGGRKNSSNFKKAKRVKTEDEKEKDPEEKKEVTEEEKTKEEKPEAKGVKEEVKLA

Exercise: Look up and report IC50, with human HDAC1 (Homo sapiens) as system, for CNC(=O)CCCCC[C@H](NC(=O)C12CCN(CC1)CC2)c1ncc(-c2ccc(Cl)c(C)c2)[nH]1
Solution: 1000 to 5000 nM

Exercise: Under human HDAC1 (Homo sapiens), report IC50 for CNC(=O)CCCCC[C@H](NC(=O)c1cncs1)c1ncc(-c2ccc3cc(OC)ccc3c2)[nH]1
Solution: < 1000 nM

Exercise: Report the value of IC50 obtained on human HDAC1 (Homo sapiens) for CNC(=O)CCCCC[C@H](NC(=O)c1cncs1)c1ncc(-c2ccc(C#N)cc2)[nH]1 .
Solution: 1000 to 5000 nM

Exercise: Provide IC50, tested on human HDAC1 (Homo sapiens), for CNC(=O)CCCCC[C@H](NC(=O)c1cccc(N2CCOCC2)c1)c1ncc(-c2ccc3ccccc3c2)[nH]1 .
Solution: > 5000 nM

Exercise: // output IC50; input CNC(=O)CCCCC[C@H](NC(=O)C1CN(C)C1)c1ncc(-c2cc3ccccc3nc2OC)o1 ; system human HDAC1 (Homo sapiens)
Solution: < 1000 nM

Exercise: Give IC50 for CNC(=O)CCCCC[C@H](NC(=O)c1cncs1)c1ncc(-c2ccc(CN(C)C)cc2)[nH]1 tested on human HDAC1 (Homo sapiens).
Solution: 1000 to 5000 nM

Exercise: Fill in IC50 for CNC(=O)CCCCC[C@H](NC(=O)c1nnc(C)s1)c1ncc(-c2ccc3ccccc3c2)[nH]1 tested with human HDAC1 (Homo sapiens).
Solution: 1000 to 5000 nM

Exercise: Param request: IC50 | system human HDAC1 (Homo sapiens) | item CNC(=O)CCCCC[C@H](NC(=O)Cc1cnc2ccccn12)c1ncc(-c2ccc3ccncc3c2)[nH]1
Solution: < 1000 nM
